target: 1,3-dicarbonyl-dioxygenase (Acinetobacter johnsonii)
Sequence (Q8GNT2 whole entry): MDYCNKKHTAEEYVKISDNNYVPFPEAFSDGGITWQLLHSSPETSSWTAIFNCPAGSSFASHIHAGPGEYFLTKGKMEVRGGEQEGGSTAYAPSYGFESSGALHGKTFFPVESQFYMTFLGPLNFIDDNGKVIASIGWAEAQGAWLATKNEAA
Assay type: biochemical
Items are presented alongside their recorded Relative activity [%] 10 min (reactivation).
experimentalReadout: Relative activity [%] 10 min (reactivation) (%)

>>> df
                           molecule                                    target  unitofmeasurement  measured
0        [Cl][Fe]([Cl])[Cl] [FeCl3]  1,3-dicarbonyl-dioxygenase (Acinetobacter johnsonii)                  %         0
1              [Cl][Ni][Cl] [NiCl2]  1,3-dicarbonyl-dioxygenase (Acinetobacter johnsonii)                  %         0
2  O=S(=O)([O-])[O-].[Fe+2] [FeSO4]  1,3-dicarbonyl-dioxygenase (Acinetobacter johnsonii)                  %        33
3  O=S(=O)([O-])[O-].[Zn+2] [ZnSO4]  1,3-dicarbonyl-dioxygenase (Acinetobacter johnsonii)                  %         0
4  O=S(=O)([O-])[O-].[Mn+2] [MnSO4]  1,3-dicarbonyl-dioxygenase (Acinetobacter johnsonii)                  %         0
5              [Cl][Cu][Cl] [CuCl2]  1,3-dicarbonyl-dioxygenase (Acinetobacter johnsonii)                  %         0
